System: CCRF-CEM;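 further: ALL cell lines in 384-well plates, five doses spanning 10,000-fold, each plate scaled between vehicle and 100 µmol/L benzalkonium chloride controls, sDSS an adapted area-under-curve metric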
Assay: selective drug sensitivity score (sDSS, relative to normal bone marrow) (sDSS (score)); higher = more potent and effective on the cell line relative to normal bone marrow cells
Conditions: 72 h
Class Condition met: selective drug sensitivity score at least 2. Class Condition not met: selective drug sensitivity score below 2.

Worked examples follow.
molecule	classification
COc1cc(Nc2ncc(F)c(Nc3ccc4c(n3)NC(=O)C(C)(C)O4)n2)cc(OC)c1OC [Tamatinib] (top concentration 10000 nM)	Condition not met
C[C@H]1C[C@@H](n2c(Nc3ccc(OC(F)(F)F)cc3)nc3cc(CCC(=O)O)ccc32)CC(C)(C)C1 (top concentration 10000 nM)	Condition not met
Cc1ccc(NS(=O)(=O)c2cccc(C#N)c2)c2[nH]cc(C#N)c12 [E7820] (top concentration 50000 nM)	Condition met

(Q) selective drug sensitivity score >= 2 for COc1cc([C@@H]2c3cc4c(cc3[C@@H](O[C@@H]3O[C@@H]5CO[C@@H](C)O[C@H]5[C@H](O)[C@H]3O)[C@H]3COC(=O)[C@H]23)OCO4)cc(OC)c1O [Etoposide] (top concentration 10000 nM) ?
(A) Condition met

(Q) selective drug sensitivity score >= 2 for C[C@@H](Nc1cc(F)cc(F)c1)c1cc(C(=O)N(C)C)cc2c(=O)cc(N3CCOCC3)oc12 [AZD-8186] (top concentration 1000 nM) ?
(A) Condition not met

(Q) selective drug sensitivity score >= 2 for CC(C)(C)Cn1c(N)nc2ccc(-c3[nH]c(C(C)(C)C)nc3-c3ccc(F)cc3)nc21 [Ralimetinib] (top concentration 10000 nM) ?
(A) Condition met
